system: Hemagglutinin (Influenza A virus (strain A/X-31 H3N2), UniProt P03438)
Sequence (P03438 whole entry): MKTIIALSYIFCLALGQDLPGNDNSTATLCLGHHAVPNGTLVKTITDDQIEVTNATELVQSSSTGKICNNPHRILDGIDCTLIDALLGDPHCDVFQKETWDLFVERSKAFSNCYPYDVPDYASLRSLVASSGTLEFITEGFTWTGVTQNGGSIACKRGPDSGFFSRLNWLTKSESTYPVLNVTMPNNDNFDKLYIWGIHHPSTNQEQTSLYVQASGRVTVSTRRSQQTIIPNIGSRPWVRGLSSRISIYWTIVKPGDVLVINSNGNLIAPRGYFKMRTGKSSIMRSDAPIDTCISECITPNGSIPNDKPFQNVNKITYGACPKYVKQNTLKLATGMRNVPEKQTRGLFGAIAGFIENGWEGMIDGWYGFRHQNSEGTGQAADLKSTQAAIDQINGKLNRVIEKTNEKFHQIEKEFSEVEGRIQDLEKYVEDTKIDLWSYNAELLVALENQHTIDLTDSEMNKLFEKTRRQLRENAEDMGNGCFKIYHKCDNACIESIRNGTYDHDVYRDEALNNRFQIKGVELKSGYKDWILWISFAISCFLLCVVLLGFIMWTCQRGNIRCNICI
assay summary: Inhibition of hemagglutininin in Influenza A virus (A/X-31(H3N2)) infected in chicken red blood cells assessed as inhibition of hemolysis preincubated for 1 hr prior to addition of red blood cells measured at pH 5.0 by spectrophotometric analysis
endpoint: IC50 (µM)
Please respond with the number in µM and leave the unit unwritten.

Report IC50 for CC1CCC2(CC1)SC(C)C(=O)N2NC(=O)C12CC3CC(CC(C3)C1)C2 (stereo unspecified) please.
3.7

###

Test system: Influenza B virus
assay summary: Antiviral activity against Influenza B virus (B/HK/5/72) infected in MDCK cells assessed as virus-induced cytopathic effect after 3 days by MTS assay
Format: functional, cell-based
condition info: B/Hong Kong/05/1972, MDCK, 72 h
Please provide measured EC50 for the entries that follow.

For the compound shown here, CCCC1CCC2(CC1)SC(C)C(=O)N2NC(=O)C12CC3CC(CC(C3)C1)C2 (stereo not given) , give the reported EC50.
> 100 µM

Tell me the measured EC50 of Cc1nc2sccn2c1C(=O)NN1C(=O)C(C)SC12CCC(C)CC2 (stereo not given) , please.
> 100 µM

Data request, read-out EC50, for CCC1CCC2(CC1)SCC(=O)N2NC(=O)C12CC3CC(CC(C3)C1)C2 (stereo not given)
> 100 µM

Need EC50, item CC1SC2(CCC(C(C)(C)C)CC2)N(NC(=O)C23CC4CC(CC(C4)C2)C3)C1=O (stereo not given)
> 100 µM

So what's the measured EC50 for this one? CC(=O)N[C@H]1[C@H]([C@H](O)[C@H](O)CO)OC(C(=O)O)=C[C@@H]1NC(=N)N
0.063 µM

###

Would you kindly list pEC50 for each of these compounds?
Test system: Influenza A virus
assay summary: Antiviral activity against Influenza A virus (A/X-31(H3N2)) infected in MDCK cells assessed as virus-induced cytopathic effect after 3 days by microscopic analysis
Type: functional, organism-based
condition info: 72 h
pEC50: −log10 of the molar value.

Could you share which pEC50 value was measured for CCC1CCC2(CC1)SCC(=O)N2NC(=O)C12CC3CC(CC(C3)C1)C2 (stereo not drawn) ?
< 4.00

Entry CC(C)(C)C1CCC2(CC1)SCC(=O)N2NC(=O)C12CC3CC(CC(C3)C1)C2 (stereo not drawn) has what pEC50?
< 4.00

Fill in the blank: the reported pEC50 of CC1SC2(CCC(C(C)(C)C)CC2)N(NC(=O)C23CC4CC(CC(C4)C2)C3)C1=O (stereo not drawn) is ____.
< 4.00

So what's the measured pEC50 for this one? CC1SC2(CCC(c3ccccc3)CC2)N(NC(=O)C23CC4CC(CC(C4)C2)C3)C1=O (stereo not drawn)
< 4.00

Field request: pEC50 | item: CC1SC2(CCCCC2)N(NC(=O)C23CC4CC(CC(C4)C2)C3)C1=O (stereo not drawn)
< 4.00

Requested read-out: pEC50. Entry: CCCC1CCC2(CC1)SCC(=O)N2NC(=O)C12CC3CC(CC(C3)C1)C2 (stereo not drawn)
< 4.00

Value lookup for pEC50; key = CC1CCC2(CC1)SCC(=O)N2NC(=O)C12CC3CC(CC(C3)C1)C2 (stereo not drawn)
< 4.00

Which pEC50 reading was recorded for the compound O=C1CSC2(CCC(c3ccccc3)CC2)N1NC(=O)C12CC3CC(CC(C3)C1)C2 (stereo not drawn) ?
< 4.00
